# Method description: Tanguay_ZF_120hpf_SWIM_legacy: (Legacy) Oregon State University Tanguay Lab 120 Hour Post-fertilization zebrafish Assay for Swim Bladder Malformation (AID 2283654);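 also: swim bladder malformation in each larva scored yes or no under brightfield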
Records with an inconclusive call do not appear. Calls of active or inactive are those of the source. The calls were made as follows: active = hit-call score of the fitted dose curve at least 0.9, where 1 is the maximum; inconclusive = response in the unintended direction; inactive = score below 0.9.
Readout label: outcome

As a guide, the following entries are already answered.
C=C(C)CN(CC)c1c([N+](=O)[O-])cc(C(F)(F)F)cc1[N+](=O)[O-] ... inactive
O=c1n(Cl)c(=O)n(Cl)c(=O)n1Cl ... inactive
O=P(O)(O)CCCl ... inactive
CC1(C)C(C=C(Cl)Cl)C1C(=O)OC(C#N)c1cccc(Oc2ccccc2)c1 (stereo unspecified) ... inactive
CC1(C)CCC(=Cc2ccc(Cl)cc2)C1(O)Cn1cncn1 (stereo unspecified) ... inactive

Q: Consider the molecule shown here: CC(C)Nc1nc(Cl)nc(NC(C)C)n1 What is its recorded outcome?
Result: inactive

Q: Consider the molecule shown here: Cc1ccc(N=CN(C)C=Nc2ccc(C)cc2C)c(C)c1 What is its recorded outcome?
Result: inactive

====

# Method description: IUF_NPC1a_proliferation_area_72hr: Leibniz Research Institute for Environmental Medicine (IUF) 72-hour Neural Progenitor Cell Proliferation Area Assay (NPC1a) (AID 2284208)
Activity calls are given as the source filed them. Rule for the calls: active = hit-call score of the fitted dose curve at least 0.9, where 1 is the maximum; inactive = score below 0.9.
# valid calls are active, inactive; nothing else

Q: # fetch the recorded call for O=C(Nc1ccccc1-c1ccc(Cl)cc1)c1cccnc1Cl here
Result: inactive

Q: # fetch the recorded call for CNC(=O)Oc1cccc2ccccc12 here
Result: inactive

Q: # fetch the recorded call for CCOP(=O)(OCC)Oc1nc(Cl)c(Cl)cc1Cl here
Result: active

Q: # fetch the recorded call for COC(=O)N(C(=O)N1CO[C@@]2(C(=O)OC)Cc3cc(Cl)ccc3C2=N1)c1ccc(OC(F)(F)F)cc1 here
Result: inactive

Q: # fetch the recorded call for COP(=S)(OC)SCn1nnc2ccccc2c1=O here
Result: inactive

Q: # fetch the recorded call for N#CN=C1SCCN1Cc1ccc(Cl)nc1 here
Result: inactive

====

# Measurement target: Estrogen receptor (Homo sapiens)
# Method description: ATG_ERa_TRANS: Attagene TRANS-FACTORIAL HepG2 Assay for human Estrogen Receptor alpha (ERa) (AID 2282970)
# Condition set: HepG2 Attagene TRANS ERa GAL4 reporter, mRNA
Records with an inconclusive call do not appear. The source made the active and inactive calls. Rule for the calls: active = hit-call score of the fitted dose curve at least 0.9, where 1 is the maximum; inconclusive = response in the unintended direction; inactive = score below 0.9.
# valid calls are active, inactive; nothing else

Q: # fetch the recorded call for COC(=O)NC(=S)Nc1ccccc1NC(=S)NC(=O)OC here
Result: inactive

Q: # fetch the recorded call for CCOP(=O)(OCC)Oc1nc(Cl)c(Cl)cc1Cl here
Result: active

Q: # fetch the recorded call for CC(C)Oc1cccc(NC(=O)c2ccccc2C(F)(F)F)c1 here
Result: inactive

Q: # fetch the recorded call for CC(C)Nc1nc(Cl)nc(NC(C)C)n1 here
Result: inactive

Q: # fetch the recorded call for Cc1c(COC(=O)[C@@H]2[C@H](/C=C(\Cl)C(F)(F)F)C2(C)C)cccc1-c1ccccc1 here
Result: active

Q: # fetch the recorded call for N#Cc1c[nH]cc1-c1cccc2c1OC(F)(F)O2 here
Result: active

Q: # fetch the recorded call for COP(=S)(OC)Oc1ccc([N+](=O)[O-])c(C)c1 here
Result: active

Q: # fetch the recorded call for CCCCOCN(C(=O)CCl)c1c(CC)cccc1CC here
Result: inactive

Q: # fetch the recorded call for CC(C)C1(C)N=C(c2ncccc2C(=O)O)NC1=O (stereo not given) here
Result: inactive

Q: # fetch the recorded call for N#Cc1c(Cl)cccc1Cl here
Result: inactive

Q: # fetch the recorded call for COc1cc(Cl)c(OC)cc1Cl here
Result: inactive

Q: # fetch the recorded call for OC(c1ccc(Cl)cc1)(c1ccc(Cl)cc1)C(Cl)(Cl)Cl here
Result: inactive

Q: # fetch the recorded call for COP(=S)(OC)SCn1nnc2ccccc2c1=O here
Result: active

Q: # fetch the recorded call for CSC(=O)c1c(C(F)F)nc(C(F)(F)F)c(C(=O)SC)c1CC(C)C here
Result: active

Q: # fetch the recorded call for CC1(C)CCC(=Cc2ccc(Cl)cc2)C1(O)Cn1cncn1 (stereo not given) here
Result: inactive
